Parameter 'readout' = GI50; parameter 'system' = HCT-15.

Field: example entries. Status: answers known.
CC1=NN(C(=O)CC(=O)Nc2cccc(C)c2)C(=O)C1/N=N/c1ccc(C(=O)O)cc1 (stereo not drawn)    > 100 µM
Cc1ccc(C(=O)C2=CN=C3C(=O)N(c4ccccc4)N(C)C3(C)C2=N)cc1 (stereo not drawn)    > 100 µM
O=C(NC(=S)NC(=O)c1cc(O)c(O)c(O)c1)c1cc(O)c(O)c(O)c1    23.9 µM
O=C(CC(C(=O)O)N1CCOCC1)c1ccccc1 (stereo not drawn)    19.5 µM

Record GI50 for all entries; do not skip any.
1. CN(C)c1ccc(C(N)=O)cn1
2. O=C1CCCN(c2ccccc2)N1
3. Cc1cc(C)nc(SC(C)C(=O)N/N=C/c2ccc(OCc3ccccc3)cc2)n1 (stereo not drawn)
4. COc1ccc(-n2nnc3c(C#N)c(C)c(-c4ccccc4)n3c2=O)cc1

[out]
["> 100 µM", "> 100 µM", "26.4 µM", "4.72 µM"]

Provide reported GI50 for each item, in the same order as listed.
1. O=C1c2ccccc2C2CCC1c1ccccc12 (stereo not drawn)
2. O=C1NC2C(CCO)CC=C[C@H]2c2cc3c(cc21)OCO3 (stereo partly drawn)
3. CCOC(=O)C1=CNC(C(=O)OCC)C1c1cccn1-c1ccccc1 (stereo not drawn)
4. CC(C)c1cccc2sc(NC(=O)C(=O)CC(=O)c3ccc(F)cc3)nc12
5. NNC(=O)Cn1ccnn1

[out]
30.6 µM
> 100 µM
40.2 µM
> 100 µM
> 100 µM

Hi! Can you tell me GI50 for each of these molecules?
1. N#CC1(C#N)NC(c2ccccc2)C(C#N)(C#N)NC1c1ccccc1 (stereo not drawn)
2. Cc1ccc(NC(=O)CC/C(CC(=O)C(C)(C)C)=N/Nc2nnc(C)n2N)cc1C
3. CC(Oc1ccc(OCC2CCCCC2)cc1)C(=O)N(CCO)CCO (stereo not drawn)

[out]
1. > 100 µM
2. > 100 µM
3. > 100 µM

----------
# Test system: Malme-3M
# PROTOCOL_SUMMARY: NCI tumour cell line growth inhibition, 48 h
Calls of active or inactive are those of the source. No stated cut-off is given here; in the data, active = GI50 up to about 1.1 µM and inactive = higher.
Hi there, use one of these labels in your reply, thanks! active, inactive

CC(=O)NCCC1CNc2ccccc21 (stereo unspecified)    inactive
O=c1oc2ccccc2cc1-c1ccc([N+](=O)[O-])cc1    inactive

[in] Hey, what did the test say about Nc1nc2c(ncn2Cc2ccccc2CO)c(=O)[nH]1 ?
[out] inactive

[in] // outcome(item) with item = O=C1CCCN(c2ccccc2)N1
[out] inactive

[in] // return assay outcome for CC(=O)OCc1cc(=O)n(C)c2c3c4c(cc12)c(C)cc(=O)n4CO3
[out] active

[in] Record lookup: outcome of this test for CC1(C)OC[C@@H]([C@@]2(COC(c3ccccc3)(c3ccccc3)c3ccccc3)CC=CC(=O)O2)O1 ?
[out] inactive

----------
Please provide measured GI50 for the entries that follow.
# Test system: MDA-MB-231
# PROTOCOL_SUMMARY: NCI tumour cell line growth inhibition, 48 h
Activity calls are given as the source filed them. No stated cut-off is given here; in the data, active = GI50 up to about 1.1 µM and inactive = higher.

Example entries begin here.
COc1ccc(-c2cc(-c3ccc(Nc4ccnc5cc(C(F)(F)F)ccc45)cc3)[nH]c(=O)c2C#N)cc1    24.9 µM (inactive)
CCOC(=O)/C(C(=O)c1ccc[nH]1)=C1/CCCN1C    > 100 µM (inactive)

[in] Consider the compound shown here: Nc1ccn(C2CCC(CO)O2)c(=S)n1 (stereo not drawn) What is its recorded GI50?
[out] > 100 µM (inactive)

----------
# Test system: TK-10
# PROTOCOL_SUMMARY: NCI tumour cell line growth inhibition, 48 h
Active and inactive are the calls of the source. No stated cut-off is given here; in the data, active = GI50 up to about 1.1 µM and inactive = higher.
Permitted responses: yes (1) = active, no (0) = inactive

C=C1CC(Cn2cc(C)c(=O)[nH]c2=O)(c2ccc(Cl)cc2)OC1=O (stereo not given)    no (0)
Cc1cc(C)c(S(=O)(=O)N(CCCN)OCCCN)c(C)c1    no (0)
O=C1C=CC2(C=C1)O[C@H](Cc1ccccc1)[C@@H](Cc1ccccc1)O2    yes (1)
N#CCc1nc(-c2cc3c(ccc4ccccc43)oc2=O)cs1    no (0)
CC[N+](CC)(CC)Cc1cn(S(=O)(=O)c2ccccc2)c2ccccc12    no (0)
O=C1C(=Cc2ccc([N+](=O)[O-])o2)C(=O)N(CCc2ccccc2)S(=O)(=O)N1CCc1ccccc1    no (0)
c1ccc2c3nnc(c2c1)SCCCSc1nnc(c2ccccc12)SCCCS3    no (0)
CC1(C)OC2C(CO)OC(n3ccc(N)nc3=O)C2O1 (stereo not given)    no (0)

[in] Query: recorded result category for CCOP(=O)(OCC)C(NC(=O)OCC(Cl)(Cl)Cl)n1nnc(C(=O)OC)c1C(=O)OC (stereo not given) in this test
[out] no (0)

[in] Identify the outcome logged in this assay for the compound shown: CC1=NN(c2ccccc2)C(=O)C1/N=N/c1ccc(Br)c(C)c1 (stereo not given)
[out] no (0)

----------
# Test system: MDA-N
# PROTOCOL_SUMMARY: NCI tumour cell line growth inhibition, 48 h
Active and inactive are the calls of the source. Rule as the data show it: active = GI50 up to about 1.1 µM and inactive = higher.
OBSERVED_PROPERTY: GI50

Examples from the recorded data:
c1ccc(/N=C2\c3ccsc3/C(=N/c3ccccc3)c3ccsc32)cc1    0.244 µM (active)
Cc1cn([C@H]2C[C@](C)(CO)N(C)O2)c(=O)[nH]c1=O    > 100 µM (inactive)
Nc1nc(O)c(N)c(NCCOCP(=O)(O)O)n1    > 100 µM (inactive)
COc1cc(NS(C)(=O)=O)ccc1NCc1c[nH]c2ccc3nc(C)ccc3c12    41.2 µM (inactive)
O=C1CCCCCCCCCCC1CN1CCOCC1 (configuration not stated)    > 100 µM (inactive)
Cc1cc(N(C)C)ccc1/N=N/c1ccc2ncccc2c1    > 100 µM (inactive)
Cc1ccsc1/C=N/Nc1cc(C)c2ccccc2n1    14.5 µM (inactive)
CC(C)(C)OC(=O)NC1CCCC1C(=O)C1=CCCC1 (configuration not stated)    53 µM (inactive)
CCOP(=O)(OCC)C(Nc1ccc(Br)cc1)c1cccc([N+](=O)[O-])c1 (configuration not stated)    19.2 µM (inactive)
Nc1ccn(C2CCC(CO)O2)c(=S)n1 (configuration not stated)    > 100 µM (inactive)

Below is a list of molecules. For each, state its recorded GI50.
1. CCC(C#N)NC(=O)NC(C#N)CC (configuration not stated)
2. C=CCC1(OCc2ccccc2)C(=O)C(=O)OC1C1COC(C)(C)O1 (configuration not stated)

[out]
> 100 µM (inactive)
> 100 µM (inactive)

----------
# Test system: NCI-H460
# PROTOCOL_SUMMARY: NCI tumour cell line growth inhibition, 48 h
Calls of active or inactive are those of the source. Rule as the data show it: active = GI50 up to about 1.1 µM and inactive = higher.
OBSERVED_PROPERTY: GI50

Worked cases, answers included:
Cc1cc(C)nc(SC(C)C(=O)N/N=C/c2ccc(OCc3ccccc3)cc2)n1 (stereo not drawn)    17.1 µM (inactive)
CC(=O)OC(CCC1(C)OC1COc1ccc(CCNC(=O)c2ccccc2)cc1)C(C)(C)OC(C)=O (stereo not drawn)    13.1 µM (inactive)

Please turn your attention to the following entry.
[in] Look up GI50 for this molecule: OCCN1CCN(CC/C=C2/c3ccccc3Sc3ccc(Cl)cc32)CC1
[out] 5.93 µM (inactive)

----------
Answer each item with its documented GI50.
# Test system: UACC-257
# PROTOCOL_SUMMARY: NCI tumour cell line growth inhibition, 48 h
The source made the active and inactive calls. Rule as the data show it: active = GI50 up to about 1.1 µM and inactive = higher.

Recorded results for 4 compounds are shown here.
O=[N+]([O-])c1ccc2nc(=S)[nH]n2c1    > 100 µM (inactive)
CC[N+](CC)(CC)Cc1cn(S(=O)(=O)c2ccccc2)c2ccccc12    > 100 µM (inactive)
O=C1C2=C(CC3C(C2)C3(Br)Br)C(=O)C2=C1CC1C(C2)C1(Br)Br (stereo not given)    > 100 µM (inactive)
Cc1cc(/N=C/c2ccc(C#N)cc2)n(-c2ccccc2)n1    > 100 µM (inactive)

[in] What does the data say about its GI50? Entry: CC(=O)OC(CCC1(C)OC1COc1ccc(CCNC(=O)c2ccccc2)cc1)C(C)(C)OC(C)=O (stereo not given)
[out] 2.13 µM (inactive)

----------
# Tested on: HT-29
# PROTOCOL_SUMMARY: NCI tumour cell line growth inhibition, 48 h
The source made the active and inactive calls. No stated cut-off is given here; in the data, active = GI50 up to about 1.1 µM and inactive = higher.
OBSERVED_PROPERTY: GI50

Some solved entries appear below for comparison.
CCOC(=O)CSC1NC(C(=O)OC)CC1OC (configuration not stated)    > 100 µM (inactive)
Cn1c(N)c(Cc2ccc(Cl)cc2)c(=O)[nH]c1=O    > 100 µM (inactive)
O=c1oc2ccccc2cc1-c1ccc([N+](=O)[O-])cc1    > 100 µM (inactive)

Batch request: GI50 per item, same order as input.
1. CCOC(=O)C(=[N+]=[N-])C(=O)CN1C(=O)C2CC(C)=C(C)CC2C1O (configuration not stated)
2. Cc1cccc2c(=O)c3c(O)cc4c(c3n(C)c12)C=CC(C)(C)O4
3. O=C(O)c1ccc2nc(-c3ccccn3)c(-c3ccccn3)nc2c1
4. CC(=O)NCCC1CNc2ccccc21 (configuration not stated)
5. Cc1cn([C@H]2C[C@](C)(CO)N(C)O2)c(=O)[nH]c1=O

[out]
["> 100 µM (inactive)", "4.63 µM (inactive)", "> 100 µM (inactive)", "> 100 µM (inactive)", "> 100 µM (inactive)"]

Can you give me GI50 for all of these, one by one?
1. NC(CCCNc1cccc(O)c1)C(=O)O (configuration not stated)
2. Nc1ncnc2c1ncn2C1OC(CO)C(O)C1N (configuration not stated)
3. Nc1[nH]c(Nc2ccc(Cl)c(Cl)c2)nc2ncnc1-2

[out]
["> 100 µM (inactive)", "> 100 µM (inactive)", "14.7 µM (inactive)"]

[in] Consider the compound shown here: Cc1ccc(C)c(N2C(=O)C(=O)C(c3nc4ccccc4o3)/C(=N\NC(=O)c3ccccc3O)C2=O)c1 (configuration not stated) What is its recorded GI50?
[out] 32.1 µM (inactive)
